List of TGI values.
System: OVCAR-4 ovarian
assayText: NCI tumour cell line growth inhibition, 48 h
observable: TGI

1) CCCO[C@@H]1[C@@H](OC(C)=O)[C@@H](OC(C)=O)C(C)(C)/C=C/[C@H](C)C(=O)[C@@]2(OC(C)=O)C[C@@](C)(OC(C)=O)[C@H](OC(C)=O)[C@@H]2[C@H]2OC(=O)CC[C@@]12OC(=O)c1ccccc1 | > 25 µM
2) COc1cccc(CC(=O)N2CCN(CCCc3ccccc3)CC2)c1 | > 100 µM
3) C(=Nc1ccc2c(c1)Cc1ccccc1-2)c1ccccn1 | > 100 µM
4) Cc1noc2c1-c1ccccc1C(c1ccc(Cl)cc1)=N[C@H]2CC(N)=O | > 100 µM
5) COc1cc2c3c(n(CCCN(C)CCO)c(=O)c2cc1OC)-c1cc2c(cc1C3=O)OCO2 | > 72.4 µM
6) COc1ccc2nc3cc(Cl)ccc3c(Sc3ccc(NC(C)=O)cc3)c2c1 | > 52.6 µM
7) C=C1CCCCCCCCC/C=C/1SCCCSC | > 100 µM
8) COc1ccc(C2(CC(C)C)CCN(S(=O)(=O)c3ccc(C)cc3)C2)cc1OC (stereo not given) | > 100 µM
9) CS(=O)(=O)N1CC(CCl)c2ccc(O)cc21 (stereo not given) | 9.9 µM
10) CC1CC(Nc2ccc(Br)cc2)N(C(=O)c2ccc(Br)cc2)O1 (stereo not given) | > 10 µM
11) CCOC(=O)c1c(OCC)[nH]c(=O)c(C(c2cccs2)c2c(O)c(C(=O)OCC)c(OCC)[nH]c2=O)c1O | 76 µM
12) COc1cc(Nc2nc3cc(C(F)(F)F)ccc3nc2C(=O)O)cc(OC)c1OC | > 100 µM
13) COc1ccc(N2C(=O)C(=O)N(c3ccc(N=Nc4ccccc4)cc3)C2=S)cc1 | 37.7 µM
14) Cc1ccc(NC(=O)C(=O)C2C(=O)NC(=O)NC2=O)cc1C | > 100 µM
15) N#Cc1cc2c(cc1Cl)Sc1nnc(Nc3ccccc3)n1S2(=O)=O | 7.79 µM
16) O=C1c2ccccc2OCC12OC21C=CC(Cl)=CC1 (stereo not given) | 46.4 µM
17) CCCCCCCCCCCC(=O)OC[C@@H](C[As](=O)(O)O)OC(=O)CCCCCCCCCCC | 29.1 µM
18) COc1ccc(-c2cc(-c3ccc(Nc4ccnc5cc(Cl)ccc45)cc3)nc(N3CCOCC3)n2)cc1 | 3.57 µM
19) CCOC(=O)c1sc(NC(=O)COc2cccc(/C=C3\CCc4cc(OC)ccc4C3=O)c2)nc1C | > 100 µM
20) C/C=C\C(CC(=O)NCC(=O)c1c[nH]c2ccccc12)CC(=O)OC (stereo not given) | > 100 µM

====

Test system: HOP-92 NSCLC
assayText: NCI tumour cell line growth inhibition, 48 h
observable: GI50

1) CCOC(=O)c1sc(NC(=O)COc2cccc(/C=C3\CCc4cc(OC)ccc4C3=O)c2)nc1C | 16.9 µM
2) Cn1cc(-c2csc(-c3cn(C)c4ccc(F)cc34)n2)c2cnccc21 | 1.64 µM
3) C=C1C(O)C2C(=C(C)C13CC3)C(=O)C(C)(C)C2OC (configuration not stated) | 24.8 µM
4) Cn1cc(S(=O)(=O)N2CCC3=Cc4c(cnn4-c4ccc(F)cc4)C[C@]3(C(=O)c3cc(C(F)(F)F)ccn3)C2)cn1 | 6.57 µM
5) COc1cc(C(=O)O[C@H](C(N)=O)[C@]2(C)CO2)c2cccc(C)c2c1 | 0.654 µM
6) CCC[CH2][Sn]1([CH2]CCC)[O]CC(COc2c(Cl)cc(Cl)cc2Cl)[O]1 (configuration not stated) | 1.55 µM
7) NCCCOc1cc(Cl)ccc1NC(=O)c1cc2ccccc2cc1OCCCN | 1.32 µM
8) O=C(N[C@@H](Cc1coc2ccccc12)B(O)O)[C@@H]1C[C@H]2CC[C@@H]1O2 | 5.06 µM
9) Nc1c(C(=O)Nc2ccccc2Cl)sc2nc3c(cc12)C(=O)CCC3 | 7.29 µM
10) COc1ccc2c(c1)c(-c1nc(-c3c[nH]c4ncccc34)cs1)cn2CCCCN1CCCCC1 | 1.18 µM
11) O=C1/C(=C/N2N=C(c3ccc4ccccc4c3)CC2c2ccccc2O)SC(=S)N1c1cccnc1 (configuration not stated) | 5.2 µM
12) N#CC(C#N)=C1CCCOc2c1ccc1ccccc21 | 15.8 µM

====

List of TGI values.
Test system: CAKI-1 renal
assayText: NCI tumour cell line growth inhibition, 48 h
observable: TGI

1) CN1CC=C(c2c(N)nc(N)[nH]c2=O)CC1 | > 100 µM
2) CCCCCCCCCCCC(=O)OC[C@@H](C[As](=O)(O)O)OC(=O)CCCCCCCCCCC | 23.8 µM
3) C/C=C\C(CC(=O)NCC(=O)c1c[nH]c2ccccc12)CC(=O)OC (configuration not stated) | > 100 µM
4) CCOC(=O)CCC1(CCC(=O)OCC)CCCCCCCCC(CCC(=O)OCC)(CCC(=O)OCC)C(=O)C1=O | > 100 µM
5) Cc1ccc(S(=O)(=O)C2=C(C(C)C)N=NC2(C)C)cc1 | > 100 µM
6) c1ccc2c3[nH]c(c2c1)=Nc1ccc(cc1)-c1nc2ccc(cc2o1)N=c1[nH]c(c2ccccc12)=Nc1ccc2nc(oc2c1)-c1ccc(cc1)N=3 | > 100 µM
7) CC(=O)c1c(N=[N+]=[N-])c2cccc3c2n(c1=O)CCC3 | 57.8 µM
8) C(=Nc1ccc2c(c1)Cc1ccccc1-2)c1ccccn1 | > 100 µM
9) O=c1[nH]nc(Cc2ccc(Cl)cc2)n1/N=C/c1cccs1 | > 100 µM
10) O=C(Nc1ccc(Cl)cc1)Nc1nccs1 | 54.8 µM
11) CC(NC(=O)c1c(O)[nH]c(=S)[nH]c1=O)c1ccc([N+](=O)[O-])cc1 (configuration not stated) | > 100 µM
12) CC(=O)OC(CCC1(C)OC1COc1ccc(CCNC(=O)C=C(C)C)cc1)C(C)(C)OC(C)=O (configuration not stated) | > 100 µM
13) NC1(CCNC(=O)c2ccccc2)CCN(C(=O)c2ccccc2)CC1 | > 100 µM
14) O=C(NNc1cnccn1)c1nc2cc(F)ccc2n2cccc12 | > 100 µM
15) CC(=O)NC1CONC1=O (configuration not stated) | > 100 µM
16) CC(Cl)CN1c2ccccc2Sc2ccc(Cl)cc21 (configuration not stated) | > 10 µM
17) NC(N)=N/N=C(\N=Nc1ccccc1)c1ccc(Cl)cc1 | 3.29 µM
18) COc1ccc2nc(-c3ccccc3)c(=O)[nH]c2c1 | > 100 µM
19) COc1cc(/C=C/C(=O)C(C(=O)/C=C/c2ccc(OC(=O)CCNC34CC5CC(CC(C5)C3)C4)c(OC)c2)C(=O)CCNC23CC4CC(CC(C4)C2)C3)ccc1OC(=O)CCNC12CC3CC(CC(C3)C1)C2 (configuration not stated) | > 100 µM
20) CN(C)CCNC(=O)c1cccc2[nH]c(-c3ccccn3)nc12 | 78.1 µM
21) CCOC(=O)C1=C(N)Oc2c(sc3c(C)cccc23)C1c1ccc(F)cc1 (configuration not stated) | 14.9 µM
22) COc1cccc(CC(=O)N2CCN(CCCc3ccccc3)CC2)c1 | > 100 µM

====

System: HCC-2998 colon
assayText: NCI tumour cell line growth inhibition, 48 h
observable: TGI (µM)

1) NCCCOc1cc(Cl)ccc1NC(=O)c1cc2ccccc2cc1OCCCN | 2.82
2) Cc1ccnc2c1C(=O)C1=C(OC(C)(C)CC1O)C2=O (configuration not stated) | 15.3
3) CCCCC1C=Cn2c(=O)oc3c(OC(C)C)c(C)c(O)c1c32 (configuration not stated) | 13.6
4) N#Cc1cc2c(cc1Cl)Sc1nnc(Nc3ccccc3)n1S2(=O)=O | 3
5) CCOP(=O)(OCC)/C(C#N)=C/c1ccc(-c2cc(C(F)(F)F)cc(C(F)(F)F)c2)o1 | 22.2
6) COc1ccc2c(c1)C(C)Cc1c(ncnc1-n1cnc3ccccc31)N2C (configuration not stated) | 10.4
7) CC(C)(C)c1cc(C(=O)/C=C/c2ccc(C(=O)O)cc2)cc(C(C)(C)C)c1 | 3.88
8) CC(=O)c1c(N=[N+]=[N-])c2cccc3c2n(c1=O)CCC3 | 32
9) C=C(C)[C@@H]1CC[C@]2(C)[C@H](CC[C@@H]3[C@@H]([C@@](C)(O)CCC=C(C)C)CC[C@]32C)[C@@]1(C)CCC(=O)O | 37.8
10) CCC[CH2][Sn]1([CH2]CCC)[O]CC(COc2c(Cl)cc(Cl)cc2Cl)[O]1 (configuration not stated) | 2.95
11) O=C1c2ccccc2OCC12OC21C=CC(Cl)=CC1 (configuration not stated) | 42.2
